# Test system: MS2 coat protein
# assay notes: apparent KD of MS2 coat protein; designed switch direction (-1 OFF switch, 1 ON switch): -1; higher = weaker reporter binding
# particulars: input ligand: FMN 200 uM
test readout: apparent KD of MS2 coat protein (µM)
Numeric only. Scale: µM

Solved entries (count: 4):
[
  {
    "seq text": "UGUCAAGCAGGAUAUGCACGUAAUAACAUGAGGAUCACCCAUGUGACCGAUUUAUAUUCUGCAGAAGGGCUUGUUU [LRO-Excl5-19-mod of Erxesoan mod by Eli Fisker] (Eterna round: R97, puzzle: Exclusion 5)",
    "quantity unit": "µM",
    "apparent KD of MS2 coat protein": 0.109
  },
  {
    "seq text": "GAUCCUUUUACGGACGUCUCGAAACAUGAGGAUCACCCAUGUGAGGAUAUCUCCGAGAGAUCGGCAGAGAAGGCACAAUAACAA [MOD Eternabot solution 19 score 84.66] (Eterna round: R96, puzzle: Exclusion NG 3)",
    "quantity unit": "µM",
    "apparent KD of MS2 coat protein": 0.0914
  },
  {
    "seq text": "AAGAACUUAGGAUAUACAUGAGGAUCACCCAUGUAGCUUCACUUGGGCCUGAGCCCGUGUAGAAGGAAGAAAAU [Arge] (Eterna round: R96, puzzle: Exclusion 3)",
    "quantity unit": "µM",
    "apparent KD of MS2 coat protein": 0.0683
  },
  {
    "seq text": "GUUCGACAUGAGGAUCACCCAUGUGAGGAUAUACGAUUAGCUGCUAGGUAGUUAGUAUGUAGAAGGUGCGUGUA [EX1 #71] (Eterna round: R97, puzzle: Exclusion 1)",
    "quantity unit": "µM",
    "apparent KD of MS2 coat protein": 0.036
  }
]

Task: Consider the sequence AAUAAUCAUGUAGGAUAUGCGUGGCGAAGCUAUGCAGAAGGACAUGAGGAUCACCCAUGUUCUAGCGUCUGCGUACAGAUGCUA [Mat - Exclusion NG 1 - Mod of JL - D79] (Eterna round: R96, puzzle: Exclusion NG 1) and give its measured apparent KD of MS2 coat protein.
Output: 0.123

* * *

# apparent KD of MS2 coat protein per entry
# Test system: MS2 coat protein
# assay notes: apparent KD of MS2 coat protein; designed switch direction (-1 OFF switch, 1 ON switch): -1; higher = weaker reporter binding
# particulars: input ligand: FMN 200 uM
Expressed in nM, but write only the number.

[
  {
    "seq text": "CCCAGUUAGUGAGGAUAUCCUACAUGAGGAUCACCCAUGUAAUAAAUGAGGAUUUCGGGUGUCUAGGAGAAGGCACGGAUAGGC [Ostracism 24 - Jieux - Exclusion NG 2] (Eterna round: R96, puzzle: Exclusion NG 2)",
    "experimental system": "MS2 coat protein",
    "apparent KD of MS2 coat protein (nM)": 79.3
  }
]

Now for another entry.
Task: Requested field: apparent KD of MS2 coat protein. Item: UUAAUGAUUGUGAGGAUAUCGGAUAGAUAGAUAUUUGAGAAGGUACAUGAGGAUCACCCAUGUGUGAUUAGAGA [Brourd's EX4 #67] (Eterna round: R97, puzzle: Brourd's mod of Exclusion 4)
Output: 155

* * *

# Test system: K4 kissing-loop RNA reporter;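 also: bound reporter read as fluorescence of individual clusters on recovered sequencing chips by microscopy, with normalized cluster intensities fitted with a binding model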
# assay notes: apparent KD of K4 kissing-loop reporter; higher = weaker reporter binding
# particulars: Eterna round: R107; input ligand: tryptophan 2.4 mM
sequences and their reported apparent KD of K4 kissing-loop reporter
Give the number; nM is assumed, so skip it.

[
  {
    "seq text": "UUUUUAAUCGCAGAUACCAGUCCAGAAUGAAUACUAUAGUGAUGUUAUAAUAAAGGGAAGGACCCUUGGCAGCUGUACUAUAUUU [AstrosSsTheB#6]",
    "quantity unit": "nM",
    "apparent KD of K4 kissing-loop reporter": 299
  }
]

Task: apparent KD of K4 kissing-loop reporter lookup needed for AAAGAUGCGUCGGCCGCCACUGUUGCCAGUGAUGUUGGCAUGUAGAUGCAGUGAUGUUGCGUUUUCAGGACCGGGACGUAAGAUG [5th] , thanks.
Output: 134

Task: Further, for GGUGGCUUACAAAGCUCAGUGAUGUUGAGCCGAGGACCGGUACGGCCGCCACUCGUUUGCCAUUCACUACAGUUACAAGCACUAG [theeternabot_exclusion_KL_Trp_A_2] ?
Output: 292

* * *

# Test system: MS2 coat protein
# assay notes: apparent KD of MS2 coat protein; designed switch direction (-1 OFF switch, 1 ON switch): 1; higher = weaker reporter binding
# particulars: Eterna round: R95; input ligand: FMN 200 uM
test readout: apparent KD of MS2 coat protein (nM)
Report only the number, with the unit nM understood.

Use these answered entries as a reference point.
[
  {
    "seq text": "GCAGUACAUGAGGAUCACCCAUGUCUCUAAAGUCGAGGAUAUGGGCAGGUUAUAUCCGAACCAGAAGGCGAGCUGC [SS1 Teenbexe 12] (puzzle: Same State 1)",
    "apparent KD of MS2 coat protein, nM": 81.5
  },
  {
    "seq text": "AGUCCAGCCUGAGCUGGACAGAAGCAUGUACAUGAGGAUCACCCAUGUCAUGUACAAGCUUUUUGCUCGUCUUAAAA [Zipper 46 - 3] (puzzle: Sensor for hsa-mir-208a)",
    "apparent KD of MS2 coat protein, nM": 422
  },
  {
    "seq text": "GGGCCAGCCUGUGCUGGGCUUUAGCAUGUACAUGAGGAUCACCCAUGUCGUGUACAUGCUUUUUGCUCGUCUUUAAA [Photon Torp-07] (puzzle: Sensor for hsa-mir-208a)",
    "apparent KD of MS2 coat protein, nM": 70.5
  },
  {
    "seq text": "GUGGUGUAGAUACAGGAUAUGUUGCUCGUAACAUGAGGAUCACCCAUGUAUCUAUGAGAUUAAAUGCAGAAGGGUGCACACCACA [Mat - Same State 2 - Mod of UCT - D72] (puzzle: Same State 2)",
    "apparent KD of MS2 coat protein, nM": 24
  },
  {
    "seq text": "AAAAGACAUGAGGAUCACCCAUGUACCAGGUCCACAGGAUAUCAUGCGUGGUUGAAUUCAUGAGAAGGGUGAGACA [Getied] (puzzle: Same State 1)",
    "apparent KD of MS2 coat protein, nM": 48.7
  }
]

Task: Any idea what apparent KD of MS2 coat protein was measured for UCUUGGUUUUUGCUCGUUUUUUGUGUUGAACAUGAGGAUCACCCAUGUAUUGUACGGUCCGAUUUGAUGAUGGUCCA [JMF 42] (puzzle: Sensor for hsa-mir-208a) ?
Output: 31.4

Task: Same question, AGUCCAGCCUGAGCUGGACAAAAGCAUGUACAUGAGGAUCACCCAUGUCAUGUACAAGCUUUUUGCUCGUAUUAAUA [Mat - hsa-mir-208a - Mod of JL - D30] (puzzle: Sensor for hsa-mir-208a) this time
Output: 491

Task: Note, next up: CGCUGCGUUUCAUAGGAUAUGUGGUUUUGAACAUGAGGAUCACCCAUGUAGACGUCAAUGGCUCCACAGAAGGGUGACACUAGUG [Aredis] (puzzle: Same State 2)
Output: 261

Task: Similarly, CUGUCUACAGGUGUCUUUGCUCGUUUUAUACAUGAGGAUCACCCAUGUUGUAGCCCGGUGCUUGCGCUGGGCUGGUU [JL ViennaUCT Tearor mod 9] (puzzle: Sensor for hsa-mir-208a) ?
Output: 66

Task: Now try GUGAAACAUGAGGAUCACCCAUGUAUGACGGGCACAGGAUAUCGUGGUUCGCUCAUACUACGAGAAGGGUGAAAAG [Inordien] (puzzle: Same State 1) .
Output: 20.5

* * *

# Tested on: MS2 coat protein
# assay notes: apparent KD of MS2 coat protein; designed switch direction (-1 OFF switch, 1 ON switch): -1; higher = weaker reporter binding
# particulars: Eterna round: R95; input ligand: microRNA oligo, concentration not stated
test readout: apparent KD of MS2 coat protein (nM)
Numeric answer only, unit nM assumed.

Example entries and their recorded answers appear below.
[
  {
    "seq text": "AUAUAGUCAGGAUAUCGAAGUGAGUGUUGGUUUGUAAGGUACGAGAAGGGACAUGAGGAUCACCCAUGUAGGAA [JR_Exclusion4)Sub003] (puzzle: Exclusion 4)",
    "experimental system": "MS2 coat protein",
    "quantity unit": "nM",
    "apparent KD of MS2 coat protein": 42.7
  },
  {
    "seq text": "AUUUAGAGAGGAUAUAUAUUGUGAAACAUGAGGAUCACCCAUGUAAUAAUAUGGAUAUAAAUAGAAGGCUCAUUUU [Mat - Exclusion 5 - JL mod - D11] (puzzle: Exclusion 5)",
    "experimental system": "MS2 coat protein",
    "quantity unit": "nM",
    "apparent KD of MS2 coat protein": 21.2
  },
  {
    "seq text": "AAUCCACAUGAGGAUCACCCAUGUCAGGAUAUCGCGCGCGCGUUUUCGGUCUUUCGCGCGAGAAGGGACGACUG (puzzle: Exclusion 1)",
    "experimental system": "MS2 coat protein",
    "quantity unit": "nM",
    "apparent KD of MS2 coat protein": 14.1
  },
  {
    "seq text": "GGGUGACAUGAGGAUCACCCAUGUCAGGAUAUGAUACUAUGUACUUCGGUACAUAGUAUCAGAAGGGACAUCAU [Ex1-3: 14] (puzzle: Exclusion 1)",
    "experimental system": "MS2 coat protein",
    "quantity unit": "nM",
    "apparent KD of MS2 coat protein": 216
  },
  {
    "seq text": "CGGUGCUGAGGAUAUACAUGAGGAUCACCCAUGUGUUAUUGAUAGAAAACUGGCAGAUGUAGAAGGCGGUACUG [Mat - Exclusion 3 - Mod of JL D99] (puzzle: Exclusion 3)",
    "experimental system": "MS2 coat protein",
    "quantity unit": "nM",
    "apparent KD of MS2 coat protein": 25.4
  },
  {
    "seq text": "UUUAAUUUUUUUUUUUUACAAGCUUUUUGCUCGUCUUAUACAUGAGGAUCACCCAUGUAGAUGGGAAAUGAAUUAUC [JMF 98] (puzzle: Sensor v3, turn-off variant 2)",
    "experimental system": "MS2 coat protein",
    "quantity unit": "nM",
    "apparent KD of MS2 coat protein": 144
  },
  {
    "seq text": "GGAUAGUGAGGAUAUCGAUGUUAGGAGGAGGAGGUAGGAGGCGAGAAGGCACAUGAGGAUCACCCAUGUAUGGU [JR_Exclu4_Sub069] (puzzle: Exclusion 4)",
    "experimental system": "MS2 coat protein",
    "quantity unit": "nM",
    "apparent KD of MS2 coat protein": 28.2
  },
  {
    "seq text": "GGUUGGCGAGGAUAUACAUGAGGAUCACCCAUGUGAGAGGAAAAAGUGAGGAAGAAAAGUAGAAGGCGCUGACG [salish99_ex3_r3_002] (puzzle: Exclusion 3)",
    "experimental system": "MS2 coat protein",
    "quantity unit": "nM",
    "apparent KD of MS2 coat protein": 60.8
  }
]

Task: Which apparent KD of MS2 coat protein is listed for CUUUUGUGAGGAUAUUAGUAGUAAAUAAAUAAAAUUACUUCUGAGAAGGCACAUGAGGAUCACCCAUGUUCCUC [salish99_ex4_r3_063] (puzzle: Exclusion 4) ?
Output: 36.9

Task: Likewise for GUAUGUUAUGAGGAUAUCGGUGAACAUACACAUCGAGAAGGCAUGACAUGAGGAUCACCCAUGUCAAGGAUGAA [Exclusion 6 - B - 18:a] (puzzle: Exclusion 6) ?
Output: 16.9

Task: // same read-out, input: AGAAGUAGUAACCGAUCCUACAUGAGGAUCACCCAUGUAGCGAGACGUGCACGCGAAGCUCGUCAGACUACCAGAUG [salish99_TOv1_r3_025] (puzzle: Sensor v3, turn-off variant 1)
Output: 139
